- Tested on: MHH-CALL-2 (B-Lymphoblastic Leukemia);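 note: after 72 h of two-drug dosing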
- ASSAY PROCEDURE: Bliss excess, mean over the matrix (fraction); higher = more synergy
The threshold is inclusive: Bliss excess of exactly 0.02 counts as Y; values below receive N.

Incoming: Hello, I need to know if Cc1c2c(nn1C)CSCc1cc(n(C)n1)CSc1cc(c3ccccc3c1)OCCCc1c(C(=O)O)n(C)c3c-2c(Cl)ccc13 [AZD5991] + CCN(CCO)CCCOc1ccc2c(Nc3cc(CC(=O)Nc4cccc(F)c4)[nH]n3)ncnc2c1 [AZD2811] (first compound max 1 µM, 7x7, partner max 1 µM) has measured Bliss excess not below 0.02. Thanks!
Outgoing: Y

Incoming: And what about the compound COc1nnc2ccc(N3CCC(c4ccc(OCCN5CCN(C)C(=O)[C@H]5C)cc4)CC3)nn12 [AZD5153] + C[C@@H]1COCCN1C2=NC(=NC(=C2)C3(CC3)[S@](=N)(=O)C)C4=C5C=CNC5=NC=C4 [AZD6738] (first compound max 1 µM, 7x7, partner max 10 µM) ?
Outgoing: N

Incoming: And what about the compound COc1nnc2ccc(N3CCC(c4ccc(OCCN5CCN(C)C(=O)[C@H]5C)cc4)CC3)nn12 [AZD5153] + CCN(CCO)CCCOc1ccc2c(Nc3cc(CC(=O)Nc4cccc(F)c4)[nH]n3)ncnc2c1 [AZD2811] (first compound max 1 µM, 7x7, partner max 1 µM) ?
Outgoing: N

###

- Test system: SW1573 (Lung Adenocarcinoma)
- ASSAY PROCEDURE: combination Emax (second highest fraction inhibited in the dose matrix, 72 h); higher = more inhibition; extreme values may be limits of the assay
The threshold is inclusive: combination Emax of exactly 0.4 counts as Satisfied; values below receive Not satisfied.

Reference set, count: 4
[[record]]
compound = "COc1nnc2ccc(N3CCC(c4ccc(OCCN5CCN(C)C(=O)[C@H]5C)cc4)CC3)nn12 [AZD5153] + C=CCn1c(=O)c2cnc(Nc3ccc(N4CCN(C)CC4)cc3)nc2n1-c1cccc(C(C)(C)O)n1 [AZD1775] (first compound max 1 µM, partner max 1 µM)"
cat = "Satisfied"

[[record]]
compound = "COc1nnc2ccc(N3CCC(c4ccc(OCCN5CCN(C)C(=O)[C@H]5C)cc4)CC3)nn12 [AZD5153] + C[C@@H]1COCCN1C2=NC(=NC(=C2)C3(CC3)[S@](=N)(=O)C)C4=C5C=CNC5=NC=C4 [AZD6738] (first compound max 1 µM, 7x7, partner max 10 µM)"
cat = "Satisfied"

[[record]]
compound = "CN(C)CCCOc1ccc(-c2ccc3ncc4c(c3c2)n(C2CCOCC2)c(=O)n4C)cn1 [AZD0156] + CCN(CCO)CCCOc1ccc2c(Nc3cc(CC(=O)Nc4cccc(F)c4)[nH]n3)ncnc2c1 [AZD2811] (first compound max 1 µM, 7x7, partner max 1 µM)"
cat = "Not satisfied"

[[record]]
compound = "CC(=O)c1c(C)c2cnc(Nc3ccc(N4CCNCC4)cn3)nc2n(C2CCCC2)c1=O [Palbociclib] + Cn1cnc2c(F)c(Nc3ccc(Br)cc3Cl)c(C(=O)NOCCO)cc21 [Selumetinib] (first compound max 10 µM, 7x7, partner max 10 µM)"
cat = "Not satisfied"


Incoming: Hello, I need to know if Cc1cc2ncnn2cc1Nc1ncc2c(n1)n(C1CCOCC1)c(=O)n2C [AZD7648] + O=C(c1cc(Cc2n[nH]c(=O)c3ccccc23)ccc1F)N1CCN(C(=O)C2CC2)CC1 [Olaparib] (first compound max 10 µM, 7x7, partner max 10 µM) has measured combination Emax not below 0.4. Thanks!
Outgoing: Not satisfied

Incoming: And what about the compound CC(=O)c1c(C)c2cnc(Nc3ccc(N4CCNCC4)cn3)nc2n(C2CCCC2)c1=O [Palbociclib] + CC1(C)CCC(CN2CCN(c3ccc(C(=O)NS(=O)(=O)c4ccc(NCC5CCOCC5)c([N+](=O)[O-])c4)c(Oc4cnc5[nH]ccc5c4)c3)CC2)=C(c2ccc(Cl)cc2)C1 [Venetoclax] (first compound max 10 µM, 7x7, partner max 1 µM) ?
Outgoing: Not satisfied

Incoming: And what about the compound COc1nnc2ccc(N3CCC(c4ccc(OCCN5CCN(C)C(=O)[C@H]5C)cc4)CC3)nn12 [AZD5153] + Cn1cnc2c(F)c(Nc3ccc(Br)cc3Cl)c(C(=O)NOCCO)cc21 [Selumetinib] (first compound max 1 µM, 7x7, partner max 10 µM) ?
Outgoing: Satisfied

Incoming: And what about the compound COc1cccc(OCCCN)c1-c1cc(Nc2cnc(C#N)cn2)n[nH]1 [Prexasertib] + C=CCn1c(=O)c2cnc(Nc3ccc(N4CCN(C)CC4)cc3)nc2n1-c1cccc(C(C)(C)O)n1 [AZD1775] (first compound max 1 µM, partner max 1 µM) ?
Outgoing: Satisfied

Incoming: And what about the compound CCc1c2c(nc3ccc(O)cc13)-c1cc3c(c(=O)n1C2)COC(=O)[C@]3(O)CC [SN-38] + CN(C)CCCOc1ccc(-c2ccc3ncc4c(c3c2)n(C2CCOCC2)c(=O)n4C)cn1 [AZD0156] (first compound max 0.3 µM, 7x7, partner max 1 µM) ?
Outgoing: Satisfied

Incoming: And what about the compound NC1(C(=O)N[C@@H](CCO)c2ccc(Cl)cc2)CCN(c2ncnc3[nH]ccc23)CC1 [Capivasertib] + CCN(CCO)CCCOc1ccc2c(Nc3cc(CC(=O)Nc4cccc(F)c4)[nH]n3)ncnc2c1 [AZD2811] (first compound max 10 µM, 7x7, partner max 1 µM) ?
Outgoing: Not satisfied

###

- Test system: HH (T-Cell Non-Hodgkin's Lymphoma)
- ASSAY PROCEDURE: combination Emax (second highest fraction inhibited in the dose matrix, 72 h); higher = more inhibition; extreme values may be limits of the assay
Listed here: items and their measured combination Emax.
Enter the number alone.

Examples with answers:
[[record]]
molecule = "CCN(CCO)CCCOc1ccc2c(Nc3cc(CC(=O)Nc4cccc(F)c4)[nH]n3)ncnc2c1 [AZD2811] + C=CCn1c(=O)c2cnc(Nc3ccc(N4CCN(C)CC4)cc3)nc2n1-c1cccc(C(C)(C)O)n1 [AZD1775] (first compound max 1 µM, partner max 1 µM)"
measured_endpoint = "combination Emax"
experimental_value = 0.293

[[record]]
molecule = "CN(CCO)CC[C@H](CSc1ccccc1)Nc1ccc(S(=O)(=O)NC(=O)c2ccc(N3CCC([C@@H](O)c4ccccc4-c4ccc(Cl)cc4)CC3)cc2)cc1S(=O)(=O)C(F)(F)F [AZD4320] + CC(=O)O[C@H]1C(=O)[C@@]2(C)[C@H]([C@H](OC(=O)c3ccccc3)[C@]3(O)C[C@H](OC(=O)[C@H](O)[C@@H](NC(=O)c4ccccc4)c4ccccc4)C(C)=C1C3(C)C)[C@]1(OC(C)=O)CO[C@@H]1C[C@@H]2O [Paclitaxel] (first compound max 1 µM, 7x7, partner max 3 µM)"
measured_endpoint = "combination Emax"
experimental_value = 0.837

[[record]]
molecule = "COc1cccc(OCCCN)c1-c1cc(Nc2cnc(C#N)cn2)n[nH]1 [Prexasertib] + CN(C)CCCOc1ccc(-c2ccc3ncc4c(c3c2)n(C2CCOCC2)c(=O)n4C)cn1 [AZD0156] (first compound max 1 µM, 7x7, partner max 1 µM)"
measured_endpoint = "combination Emax"
experimental_value = 0.703

[[record]]
molecule = "Cn1cnc2c(F)c(Nc3ccc(Br)cc3Cl)c(C(=O)NOCCO)cc21 [Selumetinib] + C[C@@H]1COCCN1C2=NC(=NC(=C2)C3(CC3)[S@](=N)(=O)C)C4=C5C=CNC5=NC=C4 [AZD6738] (first compound max 10 µM, 7x7, partner max 10 µM)"
measured_endpoint = "combination Emax"
experimental_value = 0.175


Incoming: # lookup: combination Emax of Cn1cnc2c(F)c(Nc3ccc(Br)cc3Cl)c(C(=O)NOCCO)cc21 [Selumetinib] + CCN(CCO)CCCOc1ccc2c(Nc3cc(CC(=O)Nc4cccc(F)c4)[nH]n3)ncnc2c1 [AZD2811] (first compound max 10 µM, 7x7, partner max 1 µM)
Outgoing: 0.173

###

- System: GAMG (Glioblastoma)
- ASSAY PROCEDURE: combination Emax (second highest fraction inhibited in the dose matrix, 72 h); higher = more inhibition; extreme values may be limits of the assay
MEASURED ENDPOINT: combination Emax
Enter the number alone.

[[record]]
compound = "CC1(C)CCC(CN2CCN(c3ccc(C(=O)NS(=O)(=O)c4ccc(NCC5CCOCC5)c([N+](=O)[O-])c4)c(Oc4cnc5[nH]ccc5c4)c3)CC2)=C(c2ccc(Cl)cc2)C1 [Venetoclax] + CCN(CCO)CCCOc1ccc2c(Nc3cc(CC(=O)Nc4cccc(F)c4)[nH]n3)ncnc2c1 [AZD2811] (first compound max 1 µM, 7x7, partner max 1 µM)"
measured_endpoint = "combination Emax"
experimental_value = 0.598


Next:
Incoming: # lookup: combination Emax of COc1cccc(OCCCN)c1-c1cc(Nc2cnc(C#N)cn2)n[nH]1 [Prexasertib] + CCc1c2c(nc3ccc(O)cc13)-c1cc3c(c(=O)n1C2)COC(=O)[C@]3(O)CC [SN-38] (first compound max 1 µM, 7x7, partner max 0.3 µM)
Outgoing: 0.993
